Hey, just so you know, these numbers are from patent US20240391931A1.

study-system: HER2YVMA (Homo sapiens, UniProt P04626, INS775YVMA)
Sequence (P04626 with tags, fused parts or gaps INS775YVMA): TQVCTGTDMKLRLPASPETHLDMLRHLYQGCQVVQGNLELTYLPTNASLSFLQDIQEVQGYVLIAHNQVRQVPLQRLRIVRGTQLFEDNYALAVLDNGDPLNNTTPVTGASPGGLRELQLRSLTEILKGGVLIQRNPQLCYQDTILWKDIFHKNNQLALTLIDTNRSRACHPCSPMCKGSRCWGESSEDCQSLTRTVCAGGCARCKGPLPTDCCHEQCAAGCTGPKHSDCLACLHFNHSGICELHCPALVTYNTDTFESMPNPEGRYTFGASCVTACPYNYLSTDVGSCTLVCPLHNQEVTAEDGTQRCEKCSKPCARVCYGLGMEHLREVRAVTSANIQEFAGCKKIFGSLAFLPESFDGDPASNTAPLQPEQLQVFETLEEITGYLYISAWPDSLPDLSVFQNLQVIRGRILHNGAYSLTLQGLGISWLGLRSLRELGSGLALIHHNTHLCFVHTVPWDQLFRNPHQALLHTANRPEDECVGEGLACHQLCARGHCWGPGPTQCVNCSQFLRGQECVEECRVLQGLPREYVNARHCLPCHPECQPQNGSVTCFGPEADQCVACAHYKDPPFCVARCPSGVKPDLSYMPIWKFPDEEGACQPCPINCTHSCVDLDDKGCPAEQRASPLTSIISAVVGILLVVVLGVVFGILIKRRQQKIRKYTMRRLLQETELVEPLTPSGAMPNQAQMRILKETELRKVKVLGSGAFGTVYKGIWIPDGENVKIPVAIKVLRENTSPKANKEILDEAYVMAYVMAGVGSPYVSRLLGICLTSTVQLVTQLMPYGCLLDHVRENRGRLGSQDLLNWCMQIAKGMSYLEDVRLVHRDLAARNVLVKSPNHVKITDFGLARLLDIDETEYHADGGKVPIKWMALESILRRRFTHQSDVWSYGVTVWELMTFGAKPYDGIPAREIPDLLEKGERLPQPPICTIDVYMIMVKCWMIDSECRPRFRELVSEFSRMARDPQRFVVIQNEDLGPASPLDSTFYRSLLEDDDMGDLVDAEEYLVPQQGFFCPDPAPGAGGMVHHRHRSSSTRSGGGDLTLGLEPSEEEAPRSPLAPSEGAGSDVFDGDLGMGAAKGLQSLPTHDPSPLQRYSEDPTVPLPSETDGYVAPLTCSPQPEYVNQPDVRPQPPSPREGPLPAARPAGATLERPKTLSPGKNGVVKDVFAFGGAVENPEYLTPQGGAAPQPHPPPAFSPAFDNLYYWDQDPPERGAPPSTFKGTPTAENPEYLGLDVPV
experiment-description: HER2 signaling (pHER2) in Hek293-HER2YVMA cells
Format: cell-based
Parameters: expressed in transfected cells; host or cells: HEK293 (pool), Ba/F3 (clones), BEAS2B (clones); lentiviral vector pCDH-CMV-MCS-EF1-Neo
condition-info: 1.5 hr compound, 1% FBS, read-out: HEKYVMA pHER2 EC50
Experimental: Cell culture, plasmid cloning, and lentiviral transduction were carried out according to standard procedures. The Human HER2 cDNA construct in pCMV6-Entry for the HER2 wildtype (WT) expression was obtained from Origene. […] HER2 signaling was evaluated using phospho (Tyr1248)/total ErbB2 whole cell lysate MSD plates (Meso-Scale Discovery, Gaithersburg, MD). […]
pEC50: −log10 of the molar value.
Each record here notes measured pEC50.

Cc1ccc(Oc2ccc(Nc3ncnc4sc5c(c34)CCN(C(=O)/C=C/CN3CCCC34CCC4)C5)cc2C)cn1 [Compound 115] : > 7.00
Cc1ccc(Oc2ccc(Nc3ncnc4sc5c(c34)C(C)CN(C(=O)C=CCN(C)C)C5)cc2C)cn1 (single isomer, unassigned) [Compound 105] : > 7.00

**Query** Need pEC50 of O=C(/C=C/CN1CCOCC1)N1CCc2c(sc3ncnc(Nc4ccc(Oc5ccc6ncnn6c5)c(Cl)c4)c23)C1 [Compound 18] , thanks.
**Result** > 7.00

----------
study-system: UniProt P00533
Sequence (P00533 25-1210): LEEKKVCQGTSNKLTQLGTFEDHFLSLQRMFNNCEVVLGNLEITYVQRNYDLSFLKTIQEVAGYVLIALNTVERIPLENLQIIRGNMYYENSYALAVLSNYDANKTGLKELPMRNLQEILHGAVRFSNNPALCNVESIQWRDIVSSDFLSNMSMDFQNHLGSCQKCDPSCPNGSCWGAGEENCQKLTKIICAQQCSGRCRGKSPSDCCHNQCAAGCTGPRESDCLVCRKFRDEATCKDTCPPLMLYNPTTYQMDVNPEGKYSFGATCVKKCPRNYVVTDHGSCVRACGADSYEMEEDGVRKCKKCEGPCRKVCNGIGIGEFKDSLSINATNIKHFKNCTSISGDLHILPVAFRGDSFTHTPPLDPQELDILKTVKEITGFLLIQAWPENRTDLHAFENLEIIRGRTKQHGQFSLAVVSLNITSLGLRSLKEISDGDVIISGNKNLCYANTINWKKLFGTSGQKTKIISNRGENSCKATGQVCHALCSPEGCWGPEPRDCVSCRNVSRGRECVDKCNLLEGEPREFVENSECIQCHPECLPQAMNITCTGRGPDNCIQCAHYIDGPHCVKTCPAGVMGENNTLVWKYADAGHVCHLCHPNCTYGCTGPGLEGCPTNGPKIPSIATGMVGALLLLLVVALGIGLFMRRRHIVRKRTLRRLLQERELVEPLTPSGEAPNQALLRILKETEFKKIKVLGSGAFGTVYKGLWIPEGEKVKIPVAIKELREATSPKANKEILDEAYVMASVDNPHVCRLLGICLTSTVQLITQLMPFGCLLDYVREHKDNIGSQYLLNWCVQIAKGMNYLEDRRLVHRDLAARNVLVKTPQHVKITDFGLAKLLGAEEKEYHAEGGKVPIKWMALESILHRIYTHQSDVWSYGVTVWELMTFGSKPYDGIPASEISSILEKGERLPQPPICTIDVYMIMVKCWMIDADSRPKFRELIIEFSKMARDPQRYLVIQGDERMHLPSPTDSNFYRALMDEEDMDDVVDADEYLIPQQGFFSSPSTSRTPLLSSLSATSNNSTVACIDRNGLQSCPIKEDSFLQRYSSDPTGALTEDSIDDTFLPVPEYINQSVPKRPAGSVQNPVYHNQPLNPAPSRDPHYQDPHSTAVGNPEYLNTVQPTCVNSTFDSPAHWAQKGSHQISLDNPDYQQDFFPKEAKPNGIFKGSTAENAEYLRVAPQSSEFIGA
experiment-description: EGFR signaling (pEGFR Tyr1068/total EGFR MSD) in A431 cells
Type: cell-based
Set-up: endogenous in cells; host or cells: A431, N87
condition-info: A431 cells; read-out: A431 pEGFR EC50
readout-type: EC50

Past entries and their recorded results:
Cc1ccc(Oc2ccc(Nc3ncnc4sc5c(c34)CCN(C(=O)/C=C/CN3CCC[C@H](CO)C3)C5)cc2C)cn1 : < 100 nM
Cc1ccc(Oc2ccc(Nc3ncnc4sc5c(c34)CCN(C(=O)/C=C/CN3CC(CO)(CO)C3)C5)cc2C)cn1 : 1000 to 10000 nM
COc1ccc(Oc2ccc(Nc3ncnc4sc5c(c34)CCN(C(=O)/C=C/CN(C)C)CC5)cc2C)cn1 : 1000 to 10000 nM
COc1ccc(Oc2ccc(Nc3ncnc4sc5c(c34)C(C)CN(C(=O)C=CCN(C)C)C5)cc2C)cn1 (single isomer, unassigned) [Compound 160] : 100 to 1000 nM

**Query** Look at this compound and give its reported EC50. Cc1ccc(Oc2ccc(Nc3ncnc4sc5c(c34)CCN(C(=O)/C=C/CN3CC4CC4(CO)C3)C5)cc2C)cn1 (stereo not drawn)
**Result** 100 to 1000 nM

**Query** Give the measured EC50 of `Cc1ccc(Oc2ccc(Nc3ncnc4sc5c(c34)CCN(C(=O)/C=C/CN3CCC[C@H](n4cccn4)C3)C5)cc2C)cn1` .
**Result** 100 to 1000 nM

**Query** EC50 for `COc1cc(Nc2ncnc3sc4c(c23)CCN(C(=O)/C=C/CN(C)C)C4)ccc1Oc1ccccc1` ?
**Result** < 100 nM

**Query** What value of EC50 has been recorded for this entry: `Cc1cc(Nc2ncnc3sc4c(c23)CCN(C(=O)/C=C/CN2CCOCC2)C4)ccc1Oc1ccc2ncnn2c1`
**Result** 1000 to 10000 nM

**Query** Consider the compound Cc1ccc(Oc2ccc(Nc3ncnc4sc5c(c34)CCN(C(=O)/C=C/CNCC3CN(C)CCO3)C5)cc2C)cn1 (stereo not drawn) and give its measured EC50.
**Result** 100 to 1000 nM

----------
study-system: HER2YVMA (Homo sapiens, UniProt P04626, INS775YVMA)
experiment-description: HER2 signaling (pHER2) in Hek293-HER2YVMA cells
Assay type: cell-based
Design: expressed in transfected cells; host or cells: HEK293 (pool), Ba/F3 (clones), BEAS2B (clones); lentiviral vector pCDH-CMV-MCS-EF1-Neo
condition-info: 1.5 hr compound, 1% FBS, read-out: HEKYVMA pHER2 EC50
pEC50: −log10 of the molar value.
readout-type: pEC50

Cc1ccc(Oc2ccc(Nc3ncnc4sc5c(c34)CCN(C(=O)/C=C/CN3CC4(CCCC4)C3)C5)cc2C)cn1 : > 7.00

**Query** // lookup pEC50 for Cc1ccc(Oc2ccc(Nc3ncnc4sc5c(c34)CC(C)N(C(=O)C=CCN(C)C)C5C)cc2C)cn1 (single isomer, unassigned) [Compound 161]
**Result** > 7.00

**Query** GET /values?readout=pEC50&item= Cc1ccc(Oc2ccc(Nc3ncnc4sc5c(c34)CCN(C(=O)/C=C/CN3CC4CC4C3)C5)cc2C)cn1 (stereo not shown)
**Result** > 7.00

**Query** Endpoint output: pEC50 of `CC(=O)N1CCN(C/C=C/C(=O)N2CCc3c(sc4ncnc(Nc5ccc(Oc6ccc(C)nc6)c(C)c5)c34)C2)CC1` . Value?
**Result** 6.46 to 7.00

----------
study-system: HER2YVMA (Homo sapiens, UniProt P04626, INS775YVMA)
experiment-description: Enzymatic assay HER2YVMA (method b)
condition-info: [HER2YVMA]=5 nM, [ATP]=25 μM, [Peptide 22]=1 μM
pIC50: −log10 of the molar value.
List of pIC50 values.

Recorded results for 5 molecules are shown here.
Cc1cc(Nc2ncnc3sc4c(c23)CCN(C(=O)/C=C/CN(C)C(C)(C)C)C4)ccc1Oc1ccc2ncnn2c1 : > 7.00
C[C@H]1COCCN1C/C=C/C(=O)N1CCc2c(sc3ncnc(Nc4ccc(Oc5ccc6ncnn6c5)c(Cl)c4)c23)C1 : 6.00 to 7.00
COc1ccc(Oc2ccc(Nc3ncnc4sc5c(c34)CN(C(=O)/C=C/CN(C)C)C5)cc2C)cn1 : > 7.00
COc1ccc(Oc2ccc(Nc3ncnc4sc5c(c34)C(C)CN(C(=O)C=CCN(C)C)C5)cc2C)cn1 (single isomer, unassigned) [Compound 159] : 6.00 to 7.00
O=C(/C=C/CN1CC2CC1CO2)N1CCc2c(sc3ncnc(Nc4ccc(Oc5ccc6ncnn6c5)c(Cl)c4)c23)C1 (stereo not shown) : > 7.00

**Query** Look at this molecule and give its reported pIC50. `Cc1ccc(Oc2ccc(Nc3ncnc4sc5c(c34)CCN(C(=O)/C=C/CN[C@H]3CC[C@H](OCC(F)(F)F)CC3)C5)cc2C)cn1`
**Result** > 7.00

**Query** Give its pIC50 value. Item: `Cc1ccc(Oc2ccc(Nc3ncnc4sc5c(c34)CCN(C(=O)/C=C/CNC3CC3)C5)cc2C)cn1`
**Result** > 7.00

----------
study-system: HER2YVMA (Homo sapiens, UniProt P04626, INS775YVMA)
experiment-description: Enzymatic assay HER2YVMA (method b)
condition-info: [HER2YVMA]=5 nM, [ATP]=25 μM, [Peptide 22]=1 μM
Form field: IC50 (one value per entry).

Cc1ccc(Oc2ccc(Nc3ncnc4sc5c(c34)CCN(C(=O)/C=C/CN3CC(O)C3)C5)cc2C)cn1 : < 0.1 µM
Cc1ccc(Oc2ccc(Nc3ncnc4sc5c(c34)CN(C(=O)C=CCN(C)C)C5C)cc2C)cn1 (single isomer, unassigned) [Compound 170] : 1 to 10 µM
Cc1ccc(Oc2ccc(Nc3ncnc4sc5c(c34)CCN(C(=O)/C=C/CN3CC(C)(C)OC(C)(C)C3)C5)cc2C)cn1 : 0.1 to 1 µM

Now for a further molecule.
**Query** Field request: IC50 | item: `Cc1ccc(Oc2ccc(Nc3ncnc4sc5c(c34)CCN(C(=O)/C=C/CNCCS(C)(=O)=O)C5)cc2C)cn1`
**Result** < 0.1 µM

----------
This section presents compounds with their documented pEC50 values.
study-system: UniProt P00533
experiment-description: EGFR signaling (pEGFR Tyr1068/total EGFR MSD) in A431 cells
Format: cell-based
Parameters: endogenous in cells; host or cells: A431, N87
condition-info: A431 cells; read-out: A431 pEGFR EC50
pEC50: −log10 of the molar value.

Cc1ccc(Oc2ccc(Nc3ncnc4sc5c(c34)C[C@@H](C)N(C(=O)/C=C/CN(C)C)[C@H]5C)cc2C)cn1 (racemic) : 6.00 to 7.00
Cc1ccc(Oc2ccc(Nc3ncnc4sc5c(c34)CCN(C(=O)/C=C/CN3CC4CC(C4)C3)C5)cc2C)cn1 : > 7.00
Cc1cc(Nc2ncnc3sc4c(c23)CCN(C(=O)/C=C/CN(C)C)C4)ccc1Oc1ccn2ccnc2c1 : 6.00 to 7.00
Cc1cc(Nc2ncnc3sc4c(c23)CCN(C(=O)/C=C/CN(C)C(C)(C)C)C4)ccc1Oc1ccc2ncnn2c1 : 6.00 to 7.00
Cc1ccc(Oc2ccc(Nc3ncnc4sc5c(c34)CCN(C(=O)/C=C/CN3CCC[C@@H](CO)C3)C5)cc2C)cn1 : > 7.00

**Query** pEC50 for Cc1ccc(Oc2ccc(Nc3ncnc4sc5c(c34)CCN(C(=O)/C=C/CNC3CCOC3)C5)cc2C)cn1 (stereo not drawn) ?
**Result** 6.00 to 7.00
